- target-desc: 5-hydroxytryptamine receptor 7 (Homo sapiens, UniProt P34969)
- Sequence (P34969 whole entry): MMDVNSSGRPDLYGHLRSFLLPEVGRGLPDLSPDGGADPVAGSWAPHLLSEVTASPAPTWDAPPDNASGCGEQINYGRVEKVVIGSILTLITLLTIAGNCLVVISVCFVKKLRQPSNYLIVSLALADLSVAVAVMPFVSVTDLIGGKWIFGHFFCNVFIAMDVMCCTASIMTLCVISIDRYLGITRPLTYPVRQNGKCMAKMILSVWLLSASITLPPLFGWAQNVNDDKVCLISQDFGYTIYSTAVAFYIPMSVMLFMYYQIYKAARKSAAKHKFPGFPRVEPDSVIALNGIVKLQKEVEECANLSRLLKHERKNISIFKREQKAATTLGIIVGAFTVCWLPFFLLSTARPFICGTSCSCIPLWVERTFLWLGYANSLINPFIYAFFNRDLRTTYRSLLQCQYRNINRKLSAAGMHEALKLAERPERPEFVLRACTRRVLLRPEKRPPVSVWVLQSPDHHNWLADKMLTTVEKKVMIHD
// reported Ki per item

| molecule | target-desc | Ki, nM |
| --- | --- | --- |
| COc1ccccc1N1CCN(CCN(C(=O)C23CCC(CF)(CC2)C3)c2ccccn2)CC1 | 5-hydroxytryptamine receptor 7 (Homo sapiens, UniProt P34969) | 97 |
| COc1ccccc1N1CCN(CCN(C(=O)C23C4C5C2C2C3C4C52CF)c2ccccn2)CC1 (configuration not stated) | 5-hydroxytryptamine receptor 7 (Homo sapiens, UniProt P34969) | 132 |

* * *

- target-desc: 5-hydroxytryptamine receptor 2B (Homo sapiens)
- Sequence (P41595 whole entry): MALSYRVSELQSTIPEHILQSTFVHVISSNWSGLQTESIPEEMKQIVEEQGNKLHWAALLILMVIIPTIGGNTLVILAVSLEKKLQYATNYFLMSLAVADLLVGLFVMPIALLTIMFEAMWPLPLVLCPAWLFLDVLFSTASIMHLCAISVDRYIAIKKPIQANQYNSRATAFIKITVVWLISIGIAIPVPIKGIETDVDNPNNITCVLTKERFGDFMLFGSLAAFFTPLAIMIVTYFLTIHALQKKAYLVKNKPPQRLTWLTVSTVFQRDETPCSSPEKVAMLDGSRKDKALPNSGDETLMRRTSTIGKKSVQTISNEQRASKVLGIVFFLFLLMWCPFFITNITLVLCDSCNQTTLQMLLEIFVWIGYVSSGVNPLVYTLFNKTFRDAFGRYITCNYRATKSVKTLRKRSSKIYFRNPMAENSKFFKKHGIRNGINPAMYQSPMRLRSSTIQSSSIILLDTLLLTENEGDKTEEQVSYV
pKi: −log10 of the molar value.
endpoint-label: pKi

| smiles-text | reported |
| --- | --- |
| COc1ccccc1N1CCN(CCN(C(=O)C23CCC(CF)(CC2)CC3)c2ccccn2)CC1 | 7.10 |
